Counter-ions that a name gives are not always drawn.
ENDPOINT NAME: melting point

>>> recorded_measurement("N#C[C@@H]1CCCN1C(=O)CN[C@H]1CC[C@H](NS(=O)(=O)c2ccc(C(F)(F)F)cc2)CC1 (as salt: hydrochloride)")
"135 to 137 °C"
>>> recorded_measurement("N#C[C@@H]1CCCN1C(=O)CNC1CCC(Nc2ccnc(Cl)n2)CC1 (stereo partly shown) (as salt: hydrochloride)")
"290 to 293 °C"
>>> recorded_measurement("CC(C)(CNC(=O)c1ccc(Cl)cc1)NCC(=O)N1CCC[C@H]1C#N (as salt: hydrochloride)")
"121 to 123 °C"
>>> recorded_measurement("N#C[C@@H]1CCCN1C(=O)CNC1CCN(S(=O)(=O)c2ccc(C(F)(F)F)cc2)CC1 (as salt: hydrochloride)")
"> 300 °C"
